Procedure Details: blockers of mitochondrial fusion, WT vs mutant – cell-based, chemical genetic, wild-type and mutant, confirmation (AID 1361)
Recorded Conditions: Cell-based mitochondrial fusion phenotype, imaging, WT cells
The source made the active and inactive calls. The rule behind the calls is not given here.
Possible outcomes: active, inactive

INSERT INTO assay_data (compound, group) VALUES
  ('C=CCn1c(C)c(C(C)=O)c(N2CCN(C(c3ccccc3)c3ccccc3)CC2)nc1=S', 'active'),
  ('O=C(NCC(c1cccnc1)N1CCOCC1)c1ccco1 (stereo unspecified)', 'inactive'),
  ('O=C(CNC(=S)N(Cc1ccccc1)Cc1ccccc1F)NCc1ccc(Cl)cc1', 'active'),
  ('O=C(O)Cn1c(CC(=O)N2CCCC2)nc2ccccc21', 'inactive'),
  ('CSc1ccc(Cl)c(C(=O)NCCOc2cc(C)ccc2C(C)C)c1', 'active'),
  ('CCOC1(OCC)C(c2ccc(Cl)cc2)C(C#N)(C#N)C1(OCC)OCC (stereo unspecified)', 'active'),
  ('CN(C)c1ccc(S(=O)(=O)c2ccc(Cl)cc2)cc1', 'inactive'),
  ('C=CCn1c(COc2ccccc2-c2ccccc2)nnc1SCC(=O)NC(=O)NCc1ccco1', 'inactive'),
  ('CCCCOc1c(Br)cc(/C=N/O)cc1OCC', 'inactive'),
  ('CC(=O)N(Cc1ccc(F)cc1)C1=C(NCCc2ccccc2)C(=O)c2ccccc2C1=O', 'active'),
  ('CC1CN(C(=O)N(C)C)CCN1C(=O)N(C)C (stereo unspecified)', 'inactive');

---

Procedure Details: blockers of mitochondrial fusion, WT vs mutant – cell-based, chemical genetic, wild-type and mutant, confirmation (AID 1361)
Recorded Conditions: Cell-based mitochondrial fusion phenotype, imaging, WT cells
Activity calls are given as the source filed them. No rule for the calls is given here.
Labels: yes (active), no (inactive)

INSERT INTO measurements (molecule, group) VALUES
  ('Cc1[nH]c2ccccc2c1/C=C(\C#N)C(=O)NC(C)c1ccccc1 (centres undefined)', 'no'),
  ('CC1=CC(C)(C)N(S(=O)(=O)c2ccc(C)cc2)c2cc(C)ccc21', 'yes'),
  ('CCC(C)c1ccc(NC(=S)Nc2ccc(OC)c(OC)c2)cc1 (centres undefined)', 'no'),
  ('Cc1ncsc1C(=O)N1N=C2/C(=C/c3ccccc3)CCCC2C1c1ccccc1 (centres undefined)', 'yes'),
  ('Cc1ccc(-c2nc(N)sc2-c2ccc(C)cc2)cc1', 'no'),
  ('O=C1NC(Nc2nc3ccccc3s2)(C(F)(F)F)C(=O)N1C1CCCCC1 (centres undefined)', 'yes'),
  ('CC(C)(C)c1ccc(NC(=O)c2ccccc2)c([N+](=O)[O-])c1', 'no'),
  ('COC(=O)c1c(NC(=O)CN2CCC3(O)CCCCC3C2c2ccccc2OC)sc(C)c1C (centres undefined)', 'yes'),
  ('CCOC(=O)/C(=C\c1cccnc1)C(=O)c1cc(C(C)=O)c(Nc2ccccc2)s1', 'yes'),
  ('CCOC(=O)C1CCc2nc3ccccc3c(=O)n21 (centres undefined)', 'no'),
  ('CCOC(=O)/C(=C\c1ccc(OC(F)F)cc1)C1=Nn2c(nnc2-c2ccc(Cl)cc2)SC1', 'yes'),
  ('C=CCN1C(=O)C(CC(=O)Nc2ccc(OCCC)cc2)N(CCCN2CCN(Cc3ccccc3)CC2)C1=S (centres undefined)', 'no'),
  ('CCCOc1ccc(Cc2c(Cl)nc(SC)nc2N(C)C)cc1', 'yes'),
  ('C/C(=N\NC(=S)NCc1ccccc1)c1ccc2ccccc2c1OC(F)F', 'yes'),
  ('CCC(=Nc1ccc(OC)cc1OC)c1c(O)n(C2CCCCC2)c(=O)[nH]c1=O', 'yes'),
  ('Cc1ccc(C2=NN(S(=O)(=O)c3ccccc3)C(c3ccccc3O)C2)cc1 (centres undefined)', 'yes'),
  ('O=C(NC(=S)Nc1ccccc1N1CCCCC1)c1ccco1', 'no'),
  ('CC(=O)Nc1cccc(Oc2ncnc3scc(-c4ccc(C(C)C)cc4)c23)c1', 'yes'),
  ('CCCC[n+]1c(-c2ccc(Cl)cc2Cl)csc1Nc1ccccc1', 'yes'),
  ('O=C(N/N=C/c1cccc(O)c1)c1ccc(COc2ccccc2Br)cc1', 'yes'),
  ('Cc1nc(-c2ccccc2)sc1-c1nc(-c2ccncc2)ncc1S(=O)(=O)c1ccccc1', 'yes'),
  ('CCC(C)n1c(SCc2ccccc2)nc2ccsc2c1=O (centres undefined)', 'yes'),
  ('Cc1ccc(OCc2n[nH]c(=S)n2-c2ccccc2)cc1C', 'yes'),
  ('Cc1ccc(S(=O)(=O)c2nc(Nc3ccccc3)sc2Cl)cc1', 'yes'),
  ('Cc1cccc(N2CCN(C(c3cccs3)c3nnnn3C(C)(C)C)CC2)c1C (centres undefined)', 'yes'),
  ('O=[N+]([O-])c1ccccc1S(=O)(=O)NCCC1=CCCCC1', 'no'),
  ('O=S(Cc1ccc(Br)cc1)Cc1nnc(SCc2c(F)cccc2Cl)n1-c1ccccc1 (centres undefined)', 'no'),
  ('COc1ccccc1NC(=O)c1cccc(NC(=O)c2ccco2)c1', 'no'),
  ('C/C(=C\C(=O)c1ccccc1)Nc1cccc(O)c1', 'no'),
  ('O=S(=O)(NCC(Nc1ccc(Cl)cc1)c1ccccc1)c1ccc(Cl)cc1 (centres undefined)', 'no'),
  ('CCOC(=O)c1c(C)n(-c2ccc(C)cc2)c2ccc(OCC(O)CNCC3CCCO3)cc12 (centres undefined)', 'yes'),
  ('COC(=O)c1c(NC(=O)CN2CCC3(O)CCCCC3C2c2cc(OC)ccc2OC)sc(C)c1C (centres undefined)', 'yes'),
  ('Cn1cc(C(=O)c2ccc(Cl)cc2Cl)cc1C(=O)O', 'no'),
  ('N#C[C@H]1[C@H](c2ccccc2)[C@](C#N)(C(=O)c2ccccc2)[C@@H]2C=Cc3ccccc3N21', 'no'),
  ('O=C(OC(C(=O)Nc1cccc(C(F)(F)F)c1)c1ccccc1)C1CCCCC1 (centres undefined)', 'yes'),
  ('COc1ccc(C(C)(C)C)cc1NC(=O)c1cncc(Br)c1', 'no'),
  ('Cc1nn(Cc2ccccc2Cl)c(C)c1NC(=O)NC12CC3CC(CC(C3)C1)C2', 'no'),
  ('O=C(CSc1nnnn1-c1ccccc1)NCc1cccs1', 'no'),
  ('Cc1cc(Br)ccc1NC(=O)CN1C(=O)C2C3CC(c4ccccc4)C(C3)C2C1=O (centres undefined)', 'yes');
